Source of measurements: PubChem BioAssay

- assay-name: modulators of MEP2-GFP levels in yeast, confirmation, S. cerevisiae, flow cytometry GFP, cherry picks (AID 2272);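 also: ratio of well signal to plate DMSO mean so 100% equals DMSO level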
- protocol-conditions: S. cerevisiae MEP2-GFP strain, 3 h, at 10 µM, hits give high values
Reported GFP response vs DMSO values for a set of compounds
Numeric answer only, unit % assumed.

Task: Using the record for Oc1ccc2ccccc2c1N=Nc1nccs1 , state its measured GFP response vs DMSO.
Result: 116

Task: Check the records and state GFP response vs DMSO for CCCCCn1c(=O)c(C(=O)OCC)c(O)c2ccccc21
Result: 102

Task: Look up and state reported GFP response vs DMSO for O=C(O)CSC1CC(=O)N(c2cccc(Cl)c2)C1=O (centres undefined)
Result: 110

Task: Complete the entry with GFP response vs DMSO for O=[N+]([O-])/C=C/c1cn(Cc2ccc(Cl)cc2)c2ccccc12
Result: 100

Task: Given CCC(C(=O)O)n1nc(-c2ccccc2)c2cc(Cl)ccc21 (centres undefined) , respond with its GFP response vs DMSO.
Result: 99.3
